Origin of values: patent US20100069443A1

biological target: cyclooxygenase 2 (COX-2) (Ovis aries); construct: purchased Cayman 760111; experiment: Cayman Cyclooxygenase Inhibitor Screening Assay Kit (760111), COX-2; type: biochemical
Sequence (P79208 17-603): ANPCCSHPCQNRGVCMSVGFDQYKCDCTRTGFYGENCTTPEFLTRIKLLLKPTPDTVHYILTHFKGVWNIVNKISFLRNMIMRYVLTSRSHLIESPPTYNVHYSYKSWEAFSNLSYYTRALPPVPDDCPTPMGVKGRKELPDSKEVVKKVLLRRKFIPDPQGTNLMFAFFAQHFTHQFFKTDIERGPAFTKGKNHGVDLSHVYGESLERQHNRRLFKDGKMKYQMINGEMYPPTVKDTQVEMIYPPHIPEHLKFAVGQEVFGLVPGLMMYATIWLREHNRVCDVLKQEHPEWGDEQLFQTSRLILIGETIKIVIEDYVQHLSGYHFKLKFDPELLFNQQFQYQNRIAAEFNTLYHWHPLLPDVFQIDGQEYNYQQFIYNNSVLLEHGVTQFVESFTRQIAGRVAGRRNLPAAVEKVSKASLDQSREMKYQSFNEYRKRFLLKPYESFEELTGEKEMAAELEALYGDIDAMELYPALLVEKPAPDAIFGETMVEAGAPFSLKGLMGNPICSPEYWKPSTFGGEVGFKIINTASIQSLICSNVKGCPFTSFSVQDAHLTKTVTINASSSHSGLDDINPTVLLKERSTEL
Here the recorded IC50 is given for each entry.

Nc1ccc(NC(=O)c2ccc(C(F)(F)F)cc2)nc1
> 100 µM

Now for the compound whose IC50 we want.
I'm curious: which IC50 was measured for "Nc1ccc(C(=O)Nc2ccc(C(F)(F)F)cn2)cc1" tested on cyclooxygenase 2 (COX-2) (Ovis aries)?
> 100 µM

----------
target: cyclooxygenase-1 (COX-1) (Ovis aries, UniProt P05979); construct: purchased Cayman 760111; test: Cayman Cyclooxygenase Inhibitor Screening Assay Kit (760111), COX-1; type: biochemical
Sequence (P05979 25-600): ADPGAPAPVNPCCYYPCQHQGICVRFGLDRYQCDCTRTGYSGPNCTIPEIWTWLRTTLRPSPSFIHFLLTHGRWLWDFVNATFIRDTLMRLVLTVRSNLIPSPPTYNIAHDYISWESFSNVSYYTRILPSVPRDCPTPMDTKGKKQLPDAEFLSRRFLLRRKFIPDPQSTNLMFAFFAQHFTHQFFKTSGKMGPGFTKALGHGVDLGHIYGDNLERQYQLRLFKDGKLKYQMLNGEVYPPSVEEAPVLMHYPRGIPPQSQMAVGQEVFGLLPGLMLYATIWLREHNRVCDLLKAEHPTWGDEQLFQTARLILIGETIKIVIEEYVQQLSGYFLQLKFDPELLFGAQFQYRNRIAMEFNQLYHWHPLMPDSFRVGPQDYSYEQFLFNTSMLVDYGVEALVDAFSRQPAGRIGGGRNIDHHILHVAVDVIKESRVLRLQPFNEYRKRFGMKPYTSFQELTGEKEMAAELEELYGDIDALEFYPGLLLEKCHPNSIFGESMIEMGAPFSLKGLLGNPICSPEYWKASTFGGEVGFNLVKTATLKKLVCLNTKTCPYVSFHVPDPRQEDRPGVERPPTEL
assay-endpoint: IC50 (µM)
// units = µM; emit number, no label

Nc1ccc(C(=O)Nc2ccc(C(F)(F)F)cn2)cc1
30

I'm curious: which IC50 was measured for "Nc1ccc(NC(=O)c2ccc(C(F)(F)F)cc2)nc1" tested on cyclooxygenase-1 (COX-1) (Ovis aries, UniProt P05979)?
1
